- study system: Solute carrier family 2, facilitated glucose transporter member 1 (Homo sapiens)
- protocol description: ST_JUDE_LEISH: Cytotoxicity at 2uM final concentration against transgenic Leishmania Mexicana promastigotes LmGLUT1 that are glucose transport deficient and complemented with the human glucose transporter GLUT1. Activity is measured by DNA content using SYBR green in vitro
- Assay type: functional
measurement name: inhibition (%)
Just the number in %, nothing appended.

> print(dat)
                                   compound                              study.system  number
1  CC(C)(C)c1ccc(CNC(=O)COc2ccc(-c3nnc(-c4cccc([N+](=O)[O-])c4)o3)cc2[N+](=O)[O-])cc1  Solute carrier family 2, facilitated glucose transporter member 1 (Homo sapiens)   -0.15

Lookup: What value of inhibition has been reported for the following compound? COc1ccc2nccc([C@@H](O)CN3CCC(NCc4ccc5c(c4)NC(=O)CS5)CC3)c2n1
Found: 0.52

Lookup: What value of inhibition has been reported for the following compound? OC(CNc1ccnc(Nc2ccc(Cl)cc2)n1)c1cccc(C(F)(F)F)c1 (stereo not given)
Found: 1.93

Lookup: What value of inhibition has been reported for the following compound? CN1CCN(Cc2ccc(OCc3cccc(COc4ccc(CN5CCN(C)CC5)cc4I)c3)c(I)c2)CC1
Found: 1.53

Lookup: What value of inhibition has been reported for the following compound? CC1(C)C(=O)Nc2ccc3c(c21)CC1SC(=O)NN=C31 (stereo not given)
Found: -0.91
